Reference for the values: patent US10806794B2

Assay: Plasma protein binding by equilibrium dialysis, mouse plasma
Format: in vitro ADME
Settings: read-out: Mouse Plasma Protein Binding Fu ± SD
Protocol: In assays to estimate binding of test compounds to plasma proteins, test compound solutions (5 μM) are prepared in buffer and species-specific plasma (final DMSO concentration 0.5%). The plasma-containing solution is added to one side of the membrane of an equilibrium dialysis system, and the plasma-free is added to the other side. Dialysis was allowed to reach equilibrium by incubation for two hours at 37° C. The concentration of compound on both sides of the membrane was measured using LC-MS/MS.
reported_endpoint: fraction unbound at 2 h, 5 μM
// no unit string in output, number only

Query: Please give the measured fraction unbound at 2 h, 5 μM for this compound: COC(=O)N[C@H](C(=O)N[C@@H](Cc1ccccc1)[C@@H](O)CN(Cc1ccc(-c2ccccn2)cc1)NC(=O)[C@@H](NC(=O)OC)C(C)(C)C)C(C)(C)C [Atazanavir, reference compound]
Result: 0.0574

Query: Please give the measured fraction unbound at 2 h, 5 μM for this compound: COCCOCCOCCOC(=O)NC(C(=O)NC(Cc1ccccc1)C(O)CN(Cc1ccc(-c2ccccn2)cc1)NC(=O)C(NC(=O)OC)C(C)(C)C)C(C)(C)C (centres unmarked)
Result: 0.159
